# Tested on: Jurkat T cells
# Format: cell-based, human
# EXPERIMENTAL_CONDITIONS: IL-2 production level in treated group compared to control group; 48 hours treatment, then anti-CD3/anti-CD28 12 hours
# Excerpt: Two preliminary screens were designed and performed. To construct “blood chemical compound library for cell-based screening purposes, components such as antibodies that are difficult to distinguish due to a wide variety, and some supplements that only function at a whole organism level including fish oils and herbs were excluded. […]
Would you kindly list Relative changed percentage (%) for each of these compounds?
Answers are plain numbers, in %.

compound="CC1=CCCC(C)(C)C1/C=C/C(C)=C/C=C/C(C)=C/C=C/C=C(C)/C=C/C=C(C)/C=C/C1=C(C)CCCC1(C)C (centres unmarked) [A-CAROTENE]" test_value=6.561
compound="O=C(O)CCCCC1CCSS1 (stereo not drawn) [alpha-lipoic acid]" test_value=54.62
compound="CC[C@H](C)[C@H](N)C(=O)O [L-Isoleucine]" test_value=−8.642

Go through the list and state Relative changed percentage (%) for each entry.
1. Cl.NCCc1ccc(O)c(O)c1 [3-HYDRO[…]/dopamine, 3-HYDRO[…]]
2. NC(N)=O [UREA]
3. Oc1ccc(C=Cc2cc(O)cc(O)c2)cc1 [Resveratrol]

1: 18.78; 2: −0.3112; 3: 13.16

Batch request: Relative changed percentage (%) for each of the following compounds.
1. [Cl-].[Cl-].[Zn+2] [ZINC CHLORIDE]
2. NC(=O)NCCC[C@H](N)C(=O)O [L-CITRULLINE]
3. N[C@@H](CCC(=O)N[C@@H](CS)C(=O)NCC(=O)O)C(=O)O [L-GLUTATHIONE REDUCED]
4. N[C@@H](CCC(=O)O)C(=O)O [L-Glutamic Acid]
5. O=C(O)CCCCC1CCSS1 (racemic) [DL-6,8-Thioctic Acid]

1: 13.34; 2: −3.384; 3: 48.28; 4: 2.2718; 5: −4.135
